subject-of-test: T1, Myo5, Q04439
T1 sequence (Q04439 1072-1160, looked up): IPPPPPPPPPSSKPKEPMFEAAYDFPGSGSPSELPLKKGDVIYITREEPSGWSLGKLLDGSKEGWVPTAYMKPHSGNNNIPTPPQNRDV
method: SPOT array
condition-label: median of control spots 471
endpoint: SPOT intensity

NVLRKILEIPLHSFS = 0
IPSRPAPKPPSSASA = 447
QTREPNEPPPPSPAM = 515

I: NRPAIRIPSLKKPAL
II: VNFRRIPTGPDSPPT
III: PPIPNAPLSPAPAVP
Data request: Ascending sort, SPOT intensity. Record the ranking as a list of labels in the requested order.
Data returned: II, I, III
(II: 0, I: 2, III: 443)
